Overview of reported MIC across a group of molecules:
System: Escherichia coli
Experimental protocol: microbe, parasite or virus in culture
Assay type: functional
Recorded conditions: BL21 (DE3), dose 5 µg/ml, time 16-20 hrs
Test readout: MIC (µg/mL)

In [3]: df
Out[3]:
                                      smi  test_readout  units_text  operator_symbol  observed
 0      OB(O)c1cccc(Cn2cc(-c3ccsc3)nn2)c1           MIC       µg/mL                ≤      0.06
 1            [N-]=[N+]=NCc1cccc(B(O)O)c1           MIC       µg/mL                =      0.12
 2         [N-]=[N+]=NCc1ccc(F)c(B(O)O)c1           MIC       µg/mL                =       0.5
 3     OB(O)c1cc(Cn2cc(-c3ccsc3)nn2)ccc1F           MIC       µg/mL                ≤      0.06
 4     OB(O)c1cc(-n2cc(-c3ccsc3)nn2)ccc1F           MIC       µg/mL                =         1
 5           O=C(Nc1cccc(B(O)O)c1)c1ccsc1           MIC       µg/mL                =         4
 6          [N-]=[N+]=Nc1ccc(F)c(B(O)O)c1           MIC       µg/mL                =         1
 7         [N-]=[N+]=Nc1cc(B(O)O)c(F)cc1F           MIC       µg/mL                =         8
 8      OB(O)c1cccc(-n2cc(-c3ccsc3)nn2)c1           MIC       µg/mL                =         1
 9  OB(O)c1cc(-n2cc(-c3ccsc3)nn2)c(F)cc1F           MIC       µg/mL                =         4
10      OB(O)c1cccc(Cn2cc(-c3cccs3)nn2)c1           MIC       µg/mL                ≤      0.06
11             [N-]=[N+]=Nc1cccc(B(O)O)c1           MIC       µg/mL                =      0.25
12        O=C(O)c1cn(Cc2cccc(B(O)O)c2)nn1           MIC       µg/mL                =         4

====

Experimental protocol: Cytotoxicity against HEK293 cells assessed as cell viability at 5 to 50 ug/ml incubated for 24 hrs by MTT assay relative to control
Recorded conditions: human, at 5 to 50 µg/mL
Overview of reported viability at 24 h across a group of molecules:
Test readout: viability at 24 h

>>> df
                                      smi  observed
0          [N-]=[N+]=Nc1cc(B(O)O)c(F)cc1F     > 80%
1         O=C(O)c1cn(Cc2cccc(B(O)O)c2)nn1     > 80%
2      OB(O)c1cccc(Cn2cc(-c3cccnc3)nn2)c1     > 80%
3       CCOC(=O)c1cn(-c2cccc(B(O)O)c2)nn1     > 80%
4  COc1ccc(-c2cn(Cc3cccc(B(O)O)c3)nn2)cc1     > 80%
5            O=C(Nc1cccc(B(O)O)c1)c1cccs1     > 80%
6            O=C(Nc1cccc(B(O)O)c1)c1ccsc1     > 80%
7      OB(O)c1ccc(Cn2cc(-c3ccccc3)nn2)cc1     > 80%
8       OB(O)c1cccc(Cn2cc(-c3cccs3)nn2)c1     > 80%

====

Test system: Bacteria
Experimental protocol: Inhibition of bacterial beta-lactamase KPC-2 expressed in Escherichia coli BL21 (DE3) using nitrocefin as substrate at 1 uM by spectrophotometric analysis relative to control
param class (str): category from inhibition; see ranges class 1 (below 20%), class 2 (20% to below 50%), class 3 (50% or more)

In [3]: df
Out[3]:
                                       smi  qualitative_label
 0          OB(O)c1cccc(Cn2cc(C3CC3)nn2)c1            class 2
 1            O=C(Nc1cccc(B(O)O)c1)c1cccs1            class 1
 2            O=C(Nc1cccc(B(O)O)c1)c1ccsc1            class 2
 3       OB(O)c1ccc(Cn2cc(-c3cccs3)nn2)cc1            class 2
 4       OB(O)c1ccc(Cn2cc(-c3ccsc3)nn2)cc1            class 3
 5      OB(O)c1cc(Cn2cc(-c3ccsc3)nn2)ccc1F            class 3
 6      OB(O)c1ccc(Cn2cc(-c3cccnc3)nn2)cc1            class 3
 7       OB(O)c1cccc(Cn2cc(-c3cccs3)nn2)c1            class 3
 8      OB(O)c1ccc(Cn2cc(-c3ccccc3)nn2)cc1            class 3
 9      OB(O)c1ccc(Cn2cc(-c3ccccn3)nn2)cc1            class 2
10      OB(O)c1cccc(Cn2cc(Cc3ccccc3)nn2)c1            class 2
11         O=C(O)c1cn(-c2cccc(B(O)O)c2)nn1            class 1
12           O=C(Nc1cccc(B(O)O)c1)c1ccccc1            class 2
13       OB(O)c1cccc(-n2cc(-c3ccsc3)nn2)c1            class 3
14          [N-]=[N+]=Nc1cc(B(O)O)c(F)cc1F            class 1
15       CCOC(=O)c1cn(-c2cccc(B(O)O)c2)nn1            class 2
16      OB(O)c1cccc(Cn2cc(-c3cccnc3)nn2)c1            class 3
17          [N-]=[N+]=NCc1ccc(F)c(B(O)O)c1            class 2
18             [N-]=[N+]=NCc1cccc(B(O)O)c1            class 2
19                 CCC(=O)Nc1cccc(B(O)O)c1            class 1
20  COc1ccc(-c2cn(-c3cccc(B(O)O)c3)nn2)cc1            class 1
21      OB(O)c1cccc(-n2cc(-c3ccccc3)nn2)c1            class 1
22   OB(O)c1cc(-n2cc(-c3ccsc3)nn2)c(F)cc1F            class 2
23          OB(O)c1cccc(-n2cc(C3CC3)nn2)c1            class 2
24      OB(O)c1cccc(Cn2cc(-c3ccccn3)nn2)c1            class 3
25  COc1ccc(-c2cn(Cc3cccc(B(O)O)c3)nn2)cc1            class 1

====

Experimental protocol: Inhibition of beta-lactamase OXA (unknown origin)
Design: species or system Bacteria
pIC50: −log10 of the molar value.
Test readout: pIC50

In [3]: df
Out[3]:
                                   compound  observed
0  NCc1ccc(C(=O)NC2Cc3cccc(C(=O)O)c3OB2O)cc1 (configuration not stated)      5.70
1  O=C(O)c1cccc2c1OB(O)C(NC(=O)C1CCCCC1)C2 (configuration not stated)      6.66

====

Overview of reported pKa at 100 µM across a group of molecules:
Experimental protocol: physchem
Recorded conditions: 0.1 M phosphate buffer, pH 4.3
Test readout: pKa at 100 µM

                                      smi   test_readout  observed
 0         [N-]=[N+]=Nc1cc(B(O)O)c(F)cc1F  pKa at 100 µM      6.27
 1       [N-]=[N+]=Nc1cc(F)c(F)c(B(O)O)c1  pKa at 100 µM      6.04
 2             [N-]=[N+]=Nc1cccc(B(O)O)c1  pKa at 100 µM      8.27
 3        O=[N+]([O-])c1cc(B(O)O)c(F)cc1F  pKa at 100 µM      5.98
 4     OB(O)c1cc(Cn2cc(-c3ccsc3)nn2)ccc1F  pKa at 100 µM        10
 5  OB(O)c1cc(-n2cc(-c3ccsc3)nn2)c(F)cc1F  pKa at 100 µM      6.27
 6         O=[N+]([O-])c1ccc(F)c(B(O)O)c1  pKa at 100 µM      6.03
 7         [N-]=[N+]=NCc1ccc(F)c(B(O)O)c1  pKa at 100 µM      7.22
 8          [N-]=[N+]=Nc1ccc(F)c(B(O)O)c1  pKa at 100 µM      6.87
 9     OB(O)c1cc(-n2cc(-c3ccsc3)nn2)ccc1F  pKa at 100 µM      7.61
10      OB(O)c1cccc(-n2cc(-c3ccsc3)nn2)c1  pKa at 100 µM      8.31
